These data points were gathered from patent US11958865B1.

Assay: Rat brain disposition after oral gavage
Assay type: in vivo, male Sprague-Dawley rats
Conditions: male, Sprague-Dawley, plasma, oral 10 mg/kg, 0.5 h, mean ± stdev, n=3, read-out: Total plasma concentration
Protocol: Brain disposition was evaluated in male Sprague-Dawley rats (n=3, standard body weight). Briefly, test compound was formulated as a simple suspension (0.5% HPMC in water) then administered by oral gavage (10 mg/kg, 10 mL/kg or 5 mg/kg, 10 mL/kg). […] Diluted extracts were analyzed by liquid-chromatography coupled with tandem mass spectrometry detection (LC-MS/MS) using a bioanalytical method. […]
observation_type: concentration at 0.5 h
State the value with its unit after it.

Q) Return reported concentration at 0.5 h; argument: CCOc1ncccc1-n1nc2c(c1C)Nc1ncc3c(Cl)nn(c3n1)CCCO2
A) 32 ng/mL

* * *

Assign CLint scaled at 0.05 μM to each entry below.
Test: Hepatocyte intrinsic clearance assay
Format: in vitro ADME, Human
Conditions: pooled donor, cryopreserved hepatocytes, pH 7.4; human hepatocytes 1×10^6/mL; 0.05 μM; 2 h at 37° C.
Give bare numbers, in mL/min/kg.

Some compounds with known CLint scaled at 0.05 μM results, for comparison:
INSERT INTO results (compound, recorded_value) VALUES
  ('COc1ncc(F)cc1-n1nc2c(c1C)Nc1ncc3c(Cl)nn(c3n1)CCCO2 [Example 6]', 14.3),
  ('[2H]C([2H])([2H])c1c2c(nn1-c1ccc(C)nc1C)OCCCn1nc(Cl)c3cnc(nc31)N2 [Example 25]', 19.8),
  ('[2H]C([2H])([2H])Oc1ncc(F)cc1-n1nc2c(c1C)Nc1ncc3c(Cl)nn(c3n1)CCCO2 (single isomer, unassigned) [Example 23]', 16.2),
  ('COc1ncccc1-n1nc2c(c1C)Nc1ncc3c(Cl)nn(c3n1)CCCO2 [Example 1]', 10.7),
  ('[2H]C([2H])([2H])Oc1ncccc1-n1nc2c(c1C)Nc1ncc3c(Cl)nn(c3n1)CCCO2 [Example 24]', 17.7),
  ('[2H]C([2H])([2H])c1c2c(nn1-c1cc(F)cnc1OC)OCCCn1nc(Cl)c3cnc(nc31)N2 (single isomer, unassigned) [Example 29]', 15.5),
  ('Cc1ccc(-n2nc3c(c2C)Nc2ncc4c(Cl)nn(c4n2)CCCO3)c(C)n1 [Example 9]', 16.2),
  ('COc1ncc(C)cc1-n1nc2c(c1C)Nc1ncc3c(Cl)nn(c3n1)CCCO2 [Example 12]', 8),
  ('Cc1nc(C)c(-n2nc3c(c2C)Nc2ncc4c(Cl)nn(c4n2)CCCO3)cc1F [Example 15]', 12),
  ('Cc1ncccc1-n1nc2c(c1C)Nc1ncc3c(Cl)nn(c3n1)CCCO2 [Example 3]', 6);

Would you mind listing CLint scaled at 0.05 μM for each of the following compounds?
1. COc1nccc(C)c1-n1nc2c(c1C)Nc1ncc3c(Cl)nn(c3n1)CCCO2 [Example 7]
2. Cc1ncc(F)cc1-n1nc2c(c1C)Nc1ncc3c(Cl)nn(c3n1)CCCO2 [Example 10]
3. COc1nc(C)ccc1-n1nc2c(c1C)Nc1ncc3c(Cl)nn(c3n1)CCCO2 [Example 13]

A)
[7.83, 5.5, 31.3]

Q) Return reported CLint scaled at 0.05 μM; argument: Cc1c2c(nn1-c1cccnc1C(C)(F)F)OCCCn1nc(Cl)c3cnc(nc31)N2 [Example 14]
A) 7.83
